# credit: PubChem BioAssay

test system: Lefty1; assay: Lefty1 binders on small-molecule microarrays, primary screen, biochemical, small-molecule microarray, 635/667 nm fluorescence (AID 1139); details: small-molecule microarray binding, fluorescence 635/667; higher = more signal
Items are presented alongside their recorded composite z-score.
Measure: composite z-score

[
  {
    "Compound": "COc1ccc(-c2cc3c(c(CCc4ccccc4)n2)[Si](C(C)C)(C(C)C)OC3)cn1",
    "Assayed System": "Lefty1",
    "Value": 0.496
  },
  {
    "Compound": "CCOC(=O)C[C@H]1[C@H](OC(=O)Cc2ccc3c(c2)OCO3)[C@@H](NC(=O)CC(C)C)c2cc(OCCCO)ccc2N1C(=O)Cc1ccc(OC)cc1",
    "Assayed System": "Lefty1",
    "Value": -0.194
  },
  {
    "Compound": "CN(C)CCCCNC(=O)[C@@H]1C[C@@H]2C(=O)N[C@@H](Cc3ccccc3)C(=O)N2[C@@H]1c1cccc(OCCO)c1",
    "Assayed System": "Lefty1",
    "Value": 1.65
  },
  {
    "Compound": "COc1ccc([Si](C)(C)[C@@H]2[C@@H](CC(=O)N3Cc4ccccc4C[C@H]3CO)O[C@]3(C(=O)N(C)c4ccccc43)[C@H]2C)cc1",
    "Assayed System": "Lefty1",
    "Value": 1.57
  },
  {
    "Compound": "CC(C)(C)OC(=O)CC[C@]1(C(=O)NCC(O)CO)N=C(c2ccc(OCCCO)cc2)O[C@H]1c1ccccc1 (some centres undefined)",
    "Assayed System": "Lefty1",
    "Value": -1.71
  },
  {
    "Compound": "COC(=O)Cn1c(C(=O)N(C)C)cc2c1C[C@H]1CN(C(=O)c3ccccc3)[C@@](Cc3ccc(F)cc3)(C(=O)OC)[C@@H]21",
    "Assayed System": "Lefty1",
    "Value": -0.278
  },
  {
    "Compound": "C=CCOC(=O)[C@H]1[C@@H]2C(=O)O[C@@H](c3ccccc3)[C@@H](c3ccccc3)N2[C@@H](c2ccc(OCCOC(=O)[C@H]3C[C@H]4C(=O)N[C@@H](CCCCNC(C)=O)C(=O)N4[C@H]3c3ccc(O)cc3)cc2)[C@]12C(=O)Nc1ccccc12",
    "Assayed System": "Lefty1",
    "Value": 1.1
  },
  {
    "Compound": "CN(C)C(=O)[C@@]1(Cc2ccccc2CN=[N+]=[N-])N=C(c2ccc(OCCCO)cc2)O[C@H]1c1ccccc1CN=[N+]=[N-]",
    "Assayed System": "Lefty1",
    "Value": -0.483
  },
  {
    "Compound": "O=C1O[C@H](c2ccccc2)[C@H](c2ccccc2)N2[C@H]1[C@@H](C(=O)NC[C@H](O)c1ccccc1)[C@]1(C(=O)Nc3ccc(C#CCCO)cc31)[C@H]2c1ccc(OCCO)cc1",
    "Assayed System": "Lefty1",
    "Value": 0.329
  },
  {
    "Compound": "CC(C)C(=C=CC[C@H](O)c1cccc(OCCO)c1)C[C@H](O)c1cc(Cl)cc(Cl)c1O",
    "Assayed System": "Lefty1",
    "Value": 1.3
  },
  {
    "Compound": "COC(=O)c1c2oc(c1C(=O)OC)C(=O)N(Cc1ccccc1)Cc1cn(nn1)C[C@H](Cc1ccccc1)NC(=O)N[C@H](CO)CC2",
    "Assayed System": "Lefty1",
    "Value": 0.717
  },
  {
    "Compound": "C=CCN1Cc2ccccc2[C@H]2OC(c3ccc(OCCCO)cc3)=N[C@@]2(CC=C)C1=O",
    "Assayed System": "Lefty1",
    "Value": 0.834
  },
  {
    "Compound": "O=C1C=C(c2ccccc2)C(=O)c2ccc([C@H]3Oc4ccccc4S(=O)(=O)N4CCC[C@@H]34)cc21",
    "Assayed System": "Lefty1",
    "Value": 0.203
  },
  {
    "Compound": "COC(=O)[C@@]1(Cc2ccccc2)[C@@H]2C(=CC(=O)[C@H]2CC(=O)C(=O)N(C)C)CN1C(=O)c1ccccc1",
    "Assayed System": "Lefty1",
    "Value": -0.271
  }
]
